System: primary hepatocytes isolated from rats
PROTOCOL DESCRIPTION: Cell protective effects against doxorubicin in hepatocytes (WST-1 cell viability)
Assay type: cell-based
PARTICULARS: Hepatocyte; primary rat hepatocytes pretreated with compound for 30 min, then doxorubicin; viability by WST-1 after 24-48 h
Experimental: Various endogenous/exogenous attacks on the cells trigger the mechanisms of cell death which is broadly classified into two types, i.e. apoptosis or necrosis. […] The cells were suspended in HepatoZYME media (Gibco BRL), and the number of cells was counted. […] In order to assess the hepatocyte protective effect, above adhered cells were pretreated with the Example compounds for 30 min. […] After 24-48 h, the viability of cells was determined to estimate the hepatocyte protective effects. […]
PARAMETER: pEC50
Hey, just a heads up that pEC50 is the negative log base 10 of the concentration in molar.

Examples with their reported pEC50 follow.
{"COMPOUND": "Cc1cc(NC2CCOCC2)c2[nH]c(C3=N[C@@H](CC(=O)O)CS3)cc2c1", "MEASUREMENT": 6.12}
{"COMPOUND": "O=C(O)C[C@@H]1CSC(c2cc3cc(F)cc(NC4CCCC4)c3[nH]2)=N1", "MEASUREMENT": 5.96}

Per the reported primary hepatocytes isolated from rats data, CC(=O)N1CCC(Nc2cc(C)cc3cc(C4=N[C@@H](CC(=O)O)CS4)[nH]c23)C1 (some centres unmarked) has pEC50 of 5.95
